# MEASUREMENT_TARGET: Ehrlichia translocated factor-1 (Etf-1) (Ehrlichia chaffeensis, UniProt Q2GG12 1-380)
# EXPERIMENT_SUMMARY: fluorescence polarisation
# STATED_CONDITIONS: both partners purified
Starred links: 1 amine or outer side, 2 acyl side, 3 side chain; linkers in the order of their positions; H or OH if unused. Positions of bridges follow the written chain, without caps; N, C: chain ends. Non-standard residues stand in square brackets, D forms with d. Trimesoyl = O=C(c1cc(C(=O)[*:2])cc(C(=O)[*:3])c1)[*:1]; Phe(4-Cl) = N[C@@H](Cc1ccc(Cl)cc1)C(=O)O; Phe(4-F) = N[C@@H](Cc1ccc(F)cc1)C(=O)O; d2Nal = N[C@H](Cc1ccc2ccccc2c1)C(=O)O; Nle = CCCC[C@H](N)C(=O)O; Dap = NC[C@H](N)C(=O)O
Reported pKd by item:
# pKd is unitless: minus log10 of the molar concentration; print number only

Previously resolved entries follow.
- BINDER: "Y[dA]D[dY][dA][dL][Dap][Phe(4-Cl)][d2Nal][dR]R[dR]R[Dap]-{Lys(FAM)} (linker N-7-14 via Trimesoyl; not fully specified (N-terminus)) [macrocyclic peptide B7-133-2, FAM-labelled]"
  DATA_VALUE: 5.09
- BINDER: "Y[Nle][dE]QG[dL][Dap][Phe(4-Cl)][d2Nal][dR]R[dR]R[Dap]-{Lys(FAM)} (linker N-7-14 via Trimesoyl; not fully specified (N-terminus)) [macrocyclic peptide B7-133-4, FAM-labelled]"
  DATA_VALUE: 5.19

Then this binder:
Task item: Please indicate pKd recorded for YH[d2Nal]QS[Phe(4-F)][dL][Dap][Phe(4-Cl)][d2Nal][dR]R[dR]R[Dap]-{Lys(FAM)} (linker N-8-15 via Trimesoyl; not fully specified (N-terminus)) [macrocyclic peptide B7-131-2, FAM-labelled]
Reply: 5.06
